- System: HS-PSS
- assay: drug sensitivity score (DSS, CellTiter-Glo viability, 72 h) (DSS (dimensionless)); higher = more sensitive; extreme values may be limits of the assay
drug sensitivity score by entry:
propertyLabel: drug sensitivity score

- C=C(c1ccc(C(=O)O)cc1)c1cc2c(cc1C)C(C)(C)CCC2(C)C [Bexarotene] (max concentration tested 10000 nM): 0
- CC1(COc2ccc3c(c2)ncn3-c2ccc3cccc(N4CCC(N)CC4)c3n2)COC1 [Crenolanib] (max concentration tested 10000 nM): 4.89
- O=C1CN2Cc3c(ccc(Cl)c3Cl)N=C2N1 [Anagrelide] (max concentration tested 10000 nM): 0
- COc1c(OCCCN2CCOCC2)ccc2c1N=C(NC(=O)c1cnc(N)nc1)N1CCN=C21 [Copanlisib] (max concentration tested 1000 nM): 1.69
- CCCCC(=O)OCC(=O)[C@]1(O)Cc2c(O)c3c(c(O)c2[C@@H](O[C@H]2C[C@H](NC(=O)C(F)(F)F)[C@H](O)[C@H](C)O2)C1)C(=O)c1c(OC)cccc1C3=O [Valrubicin] (max concentration tested 5000 nM): 11.7
- CN[C@@H](C)C(=O)N[C@H]1CN(C(=O)CC(C)C)CC[C@H]2CC[C@@H](C(=O)NC(c3ccccc3)c3ccccc3)N2C1=O [AT-406] (max concentration tested 10000 nM): 0.14
- CC(C)(C)c1cnc(CSc2cnc(NC(=O)C3CCNCC3)s2)o1 [SNS-032] (max concentration tested 10000 nM): 25.9
- COc1ncc(-c2ccc3nccc(-c4ccnnc4)c3c2)cc1NS(=O)(=O)c1ccc(F)cc1F [Omipalisib] (max concentration tested 1000 nM): 10.6
- COc1ccc(-c2nc(N3CCOCC3)c3sc(CN(C)c4ncc(C(=O)NO)cn4)cc3n2)cn1 [CUDC-907] (max concentration tested 10000 nM): 31.6
- CC(C)N(C[C@H]1O[C@@H](n2cnc3c(N)ncnc32)[C@H](O)[C@@H]1O)[C@H]1C[C@@H](CCc2nc3cc(C(C)(C)C)ccc3[nH]2)C1 [Pinometostat] (max concentration tested 1000 nM): 0
- C1=N/C2=N/c3ccc(OCCN4CCCC4)c(c3)COC/C=C/COCc3cccc(c3)C(=C1)N2 [Pacritinib] (max concentration tested 10000 nM): 10.8
- CC(C)C[C@H](NC(=O)[C@H](Cc1ccccc1)NC(=O)c1cnccn1)B(O)O [Bortezomib] (max concentration tested 1000 nM): 14.4

###

drug sensitivity score by entry:
- Tested on: HS-PSS
- assay: drug sensitivity score (DSS, CellTiter-Glo viability, 72 h) (DSS (dimensionless)); higher = more sensitive; extreme values may be limits of the assay
propertyLabel: drug sensitivity score

* C=CCn1c(=O)c2cnc(Nc3ccc(N4CCN(C)CC4)cc3)nc2n1-c1cccc(C(C)(C)O)n1 [MK1775] (max concentration tested 10000 nM) | 6.59
* CCn1c(-c2nonc2N)nc2c(C#CC(C)(C)O)ncc(OC[C@H]3CCCNC3)c21 (max concentration tested 10000 nM) | 0
* Cc1cnc(NC(=O)Nc2cc(Br)c(C)cc2OC[C@@H]2CNCCO2)cn1 [Rabusertib] (max concentration tested 1000 nM) | 0.93
* COc1cc2c(cc1O)CC[C@@H]1[C@@H]2CC[C@]2(C)[C@@H](O)CC[C@@H]12 [2-methoxyestradiol] (max concentration tested 10000 nM) | 1.11
* NCCNc1ccc(NCCN)c2c1C(=O)c1ccncc1C2=O [Pixantrone] (max concentration tested 10000 nM) | 4.51
* NC(=O)N1CCC(CC(=O)N2CCC([C@H]3c4ncc(Br)cc4CCc4cc(Cl)cc(Br)c43)CC2)CC1 [Lonafarnib] (max concentration tested 10000 nM) | 4.36
* O=C(Nc1cc(Cl)cc2c1[nH]c1cnccc12)c1cccnc1 [PS-1145] (max concentration tested 25000 nM) | 0.49
* CNC(=O)[C@@H](NC(=O)[C@H](CC(C)C)[C@H](O)C(=O)NO)C(C)(C)C [Marimastat] (max concentration tested 10000 nM) | 0
* Cc1cc2c(C(=O)NC[C@H](C)c3ccccc3)c(O)c(O)cc2c(O)c1-c1c(C)cc2c(C(=O)NC[C@H](C)c3ccccc3)c(O)c(O)cc2c1O [Sabutoclax] (max concentration tested 25000 nM) | 4.91
* CCN(CCO)CCCOc1ccc2c(Nc3cc(CC(=O)Nc4cccc(F)c4)[nH]n3)ncnc2c1 [AZD1152-HQPA] (max concentration tested 1000 nM) | 0.81
* Cc1sc2c(c1C)C(c1ccc(Cl)cc1)=N[C@@H](CC(=O)Nc1ccc(O)cc1)c1nnc(C)n1-2 [OTX015] (max concentration tested 10000 nM) | 10.7
* O=C1CCC(N2C(=O)c3ccccc3C2=O)C(=O)N1 (configuration not stated) [Thalidomide] (max concentration tested 10000 nM) | 0

###

- Tested on: ST8814
- assay: drug sensitivity score (DSS, CellTiter-Glo viability, 72 h) (DSS (dimensionless)); higher = more sensitive; extreme values may be limits of the assay
Use True when the recorded drug sensitivity score is no lower than 0.009; use False when it is lower.

* NS(=O)(=O)OC[C@@H]1C[C@@H](n2ccc3c(N[C@H]4CCc5ccccc54)ncnc32)C[C@@H]1O [Pevonedistat] (max concentration tested 10000 nM) | True
* CC(C)(C)c1cc(NC(=O)Nc2ccc(-c3cn4c(n3)sc3cc(OCCN5CCOCC5)ccc34)cc2)no1 [Quizartinib] (max concentration tested 1000 nM) | True
* C[C@@H]1C[C@H]2[C@@H]3CCC4=CC(=O)C=C[C@]4(C)[C@@]3(F)[C@@H](O)C[C@]2(C)[C@@]1(O)C(=O)CO [Dexamethasone] (max concentration tested 10000 nM) | True
* Oc1nc(-c2ccc(C(F)(F)F)cc2)nc2c1CSCC2 [XAV-939] (max concentration tested 10000 nM) | False
* CCN(CC)CCCC(C)Nc1c2ccc(Cl)cc2nc2ccc(OC)cc12 (configuration not stated) [Mepacrine aq] (max concentration tested 50000 nM) | True
* CO[C@@]12[C@H](COC(N)=O)C3=C(C(=O)C(C)=C(N)C3=O)N1C[C@@H]1N[C@@H]12 [Mitomycin C] (max concentration tested 10000 nM) | True
* NC1(c2ccc(-c3nc4ccn5c(=O)[nH]nc5c4cc3-c3ccccc3)cc2)CCC1 [MK-2206] (max concentration tested 1000 nM) | False
* O=C1CCC(N2C(=O)c3ccccc3C2=O)C(=O)N1 (configuration not stated) [Thalidomide] (max concentration tested 10000 nM) | True
* CC(C)NC[C@@H](C(=O)N1CCN(c2ncnc3c2[C@H](C)C[C@H]3O)CC1)c1ccc(Cl)cc1 [GDC-0068] (max concentration tested 10000 nM) | True
* Nc1nc2[nH]cnc2c(=S)[nH]1 [Thioguanine] (max concentration tested 10000 nM) | True
* CCCCC(=O)OCC(=O)[C@]1(O)Cc2c(O)c3c(c(O)c2[C@@H](O[C@H]2C[C@H](NC(=O)C(F)(F)F)[C@H](O)[C@H](C)O2)C1)C(=O)c1c(OC)cccc1C3=O [Valrubicin] (max concentration tested 5000 nM) | True
* CCn1c(C(=O)N(C2CC2)C2CC2)cc2c3c(ncn3C)c(Nc3cc(C)n(C)n3)nc21 (max concentration tested 10000 nM) | False

###

drug sensitivity score by entry:
- Tested on: ST8814
- assay: drug sensitivity score (DSS, CellTox-Green cytotoxicity, 72 h) (DSS (dimensionless)); higher = more cytotoxic; extreme values may be limits of the assay
propertyLabel: drug sensitivity score

* CNC(=O)c1cc(Oc2ccc(NC(=O)Nc3ccc(Cl)c(C(F)(F)F)c3)cc2)ccn1 [Sorafenib] (max concentration tested 1000 nM) | 0
* O=C(c1ccc(OCCN2CCCCC2)cc1)c1c(-c2ccc(O)cc2)sc2cc(O)ccc12 [Raloxifene] (max concentration tested 10000 nM) | 1.85
* COc1cc2c(Oc3ccc4[nH]c(C)cc4c3F)ncnc2cc1OCCCN1CCCC1 [Cediranib] (max concentration tested 1000 nM) | 0.0254
* Nc1cc(C(F)(F)F)c(-c2cc(N3CCOCC3)nc(N3CCOCC3)n2)cn1 [Buparlisib] (max concentration tested 10000 nM) | 4.69
* CO[C@H]1C[C@@H]2CC[C@@H](C)[C@@](O)(O2)C(=O)C(=O)N2CCCC[C@H]2C(=O)O[C@H]([C@H](C)C[C@@H]2CC[C@@H](OCCO)[C@H](OC)C2)CC(=O)[C@H](C)/C=C(\C)[C@@H](O)[C@@H](OC)C(=O)[C@H](C)C[C@H](C)/C=C/C=C/C=C/1C [Everolimus] (max concentration tested 100 nM) | 0
* CS(=O)(=O)N1CCN(Cc2cc3nc(-c4cccc5[nH]ncc45)nc(N4CCOCC4)c3s2)CC1 [Pictilisib] (max concentration tested 10000 nM) | 1.86
* Nc1ncnc2c1nc(N)n2[C@@H]1O[C@H](CO)[C@@H](O)[C@H]1O [8-amino-adenosine] (max concentration tested 50000 nM) | 14.7

These data points were gathered from the supplement of paper PMC5579334.
